Tested on: NCI-H322M lung
Test: NCI-60 one-dose screen, 48 h
Settings: 10 µM unless noted
Method: Growth inhibition of the NCI-H322M human Non-Small Cell Lung tumor cell line is measured as a screen for anti-cancer activity. Cells are grown in 96 well plates and exposed to the test compound for 48 hours. Compounds are tested at a single concentration, which is 10^-5 M for most compounds. The reported endpoint is percent growth (GI% or GIPRCNT), where numbers from 0 - 100% represent growth inhibition, and numbers from -100% - 0 represent cell death. […]
The panel holds about 83,000 compounds, 20% with a hit somewhere; the sample as a whole holds those more often. Calls of active or inactive are those of the source. The calls were made as follows: active = growth percent below 10; inactive = the rest.
Hi there, use one of these labels in your reply, thanks! active, inactive

Illustrative cases are given below, each with its answer.
Query: // outcome(item) with item = COc1cc(CNC(=O)c2ccsc2Nc2ccnc(C(F)(F)F)c2)ccc1O
Result: inactive

Query: Test call, this compound: O=c1oc2ccc(Br)cc2c(=O)n1-c1ccc(I)cc1F
Result: active

Query: // outcome(item) with item = CCCCc1ccc(NS(=O)(=O)c2cc3c4c(c2)CCN4C(=O)CC3)cc1
Result: inactive

Query: What did the test return for Nc1ncnc(N)c1NC(=O)c1ccc(OCc2ccccc2)cc1 ?
Result: inactive

New cases:
Query: Tell me the recorded outcome of this test for COC(=O)C1=Nc2ccc(F)cc2/C1=C/c1sc(=S)[nH]c1O .
Result: inactive

Query: Please share the test call associated with CCN1CCN(C(=S)SCC(=O)Nc2nc3ccc(C)cc3s2)CC1 .
Result: inactive

Query: Please state the recorded outcome for this compound: FC(F)(F)c1cccc(Nc2nc3ccccc3nc2Nc2cccc(C(F)(F)F)c2)c1
Result: active
